# assayTarget: Voltage-gated inwardly rectifying potassium channel KCNH2 (Homo sapiens)
# protocolSummary: qHTS Assay for Small Molecule Inhibitors of the Human hERG Channel Activity (AID 588834);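 note: lower thallium flux fluorescence means stronger hERG block; nearly all actives have a fitted effect of over 50% in size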
# details: U2OS BacMam hERG, FluxOR thallium flux fluorescence; series mostly up to 92.2 µM
Records with an inconclusive call do not appear. Active and inactive are the calls of the source. Calls come from the whole dose curve; as a rule, active = well fitted inhibition curve with a large enough effect; inconclusive = small, poorly fitted or top-dose-only effect; inactive = flat fitted curve, though single readings scatter.
Labels: active, inactive

INSERT INTO measurements (compound, assaytarget, cat) VALUES
  ('C/C=C1\C(=O)C[C@H]2[C@@H]3CCC4=CC(=O)CC[C@]4(C)[C@H]3CC[C@]12C', 'Voltage-gated inwardly rectifying potassium channel KCNH2 (Homo sapiens)', 'active'),
  ('Cc1ccc(S(=O)(=O)Oc2ccc(N=Nc3ccc(-c4ccc(N=Nc5c(O)ccc6cc(S(=O)(=O)O)cc(S(=O)(=O)O)c56)c(C)c4)cc3C)cc2)cc1', 'Voltage-gated inwardly rectifying potassium channel KCNH2 (Homo sapiens)', 'inactive'),
  ('O=C(OCC(COC(=O)c1ccccc1)(COC(=O)c1ccccc1)COC(=O)c1ccccc1)c1ccccc1', 'Voltage-gated inwardly rectifying potassium channel KCNH2 (Homo sapiens)', 'inactive'),
  ('Oc1ccc2cc(SSc3ccc4cc(O)ccc4c3)ccc2c1', 'Voltage-gated inwardly rectifying potassium channel KCNH2 (Homo sapiens)', 'active'),
  ('Cc1cc(O)c(C(C)(C)C)cc1Sc1cc(C(C)(C)C)c(O)cc1C', 'Voltage-gated inwardly rectifying potassium channel KCNH2 (Homo sapiens)', 'active'),
  ('Cc1cccc(O)c1C', 'Voltage-gated inwardly rectifying potassium channel KCNH2 (Homo sapiens)', 'inactive'),
  ('Cc1cc(Nc2ccc(O)cc2)ccc1N', 'Voltage-gated inwardly rectifying potassium channel KCNH2 (Homo sapiens)', 'inactive'),
  ('CO[C@H]1/C=C/O[C@@]2(C)Oc3c(C)c(O)c4c(O)c(c5c(c4c3C2=O)NC2(CCN(CC(C)C)CC2)N=5)=NC(=O)/C(C)=C\C=C\[C@H](C)[C@H](O)[C@@H](C)[C@@H](O)[C@@H](C)[C@H](OC(C)=O)[C@@H]1C', 'Voltage-gated inwardly rectifying potassium channel KCNH2 (Homo sapiens)', 'inactive'),
  ('CCC(C)Nc1ccc(NC(C)CC)cc1 (stereo not given)', 'Voltage-gated inwardly rectifying potassium channel KCNH2 (Homo sapiens)', 'active'),
  ('C=C(C)c1ccccc1', 'Voltage-gated inwardly rectifying potassium channel KCNH2 (Homo sapiens)', 'inactive'),
  ('O=C(/C=C/c1ccc(O)c(O)c1)OC1C[C@](O)(C(=O)O)C[C@@H](O)[C@H]1O (stereo not given in full)', 'Voltage-gated inwardly rectifying potassium channel KCNH2 (Homo sapiens)', 'inactive'),
  ('C=CC(=O)OCC(CO)(COC(=O)C=C)COC(=O)C=C', 'Voltage-gated inwardly rectifying potassium channel KCNH2 (Homo sapiens)', 'inactive'),
  ('c1ccc2c(c1)-c1cccc3c1c-2cc1ccccc13', 'Voltage-gated inwardly rectifying potassium channel KCNH2 (Homo sapiens)', 'inactive'),
  ('c1ccc2c(c1)ccc1cc3c(ccc4ccccc43)cc12', 'Voltage-gated inwardly rectifying potassium channel KCNH2 (Homo sapiens)', 'inactive'),
  ('Nc1ccc2cc3ccccc3cc2c1', 'Voltage-gated inwardly rectifying potassium channel KCNH2 (Homo sapiens)', 'active');

====

Measured activity change, negative = inhibition, listed per entry.
# protocolSummary: AP1 Signaling Pathway (AID 357);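 note: ME-180 reporter cells stimulated with EGF at its EC50 level; % is set by controls: 0 for no effect and ±100 for the full control effect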
# details: ME-180 (cervical carcinoma) AP-1-bla reporter, EGF-induced, beta-lactamase ratio, 5 h; at 17.2 µM (top of the series) unless noted
Inconclusive results are not listed. Active and inactive are the calls of the source. Calls come from the whole dose curve; as a rule, active = well fitted curve in either direction with a large enough effect (not every such curve was filed as active); inconclusive = small, poorly fitted or top-dose-only effect, or another doubt; inactive = flat fitted curve, though single readings scatter.
measure: activity change, negative = inhibition

INSERT INTO results (molecule, measure, result) VALUES
  ('COc1ccc(OC)c(C2=Nn3c(nnc3-c3ccco3)SC2)c1', 'activity change, negative = inhibition', '-13.7% (inactive)'),
  ('CCC1SC2=NC(C)=C(C(=O)OCCOC)C(c3ccc(C(=O)OC)cc3)N2C1=O (stereo not drawn)', 'activity change, negative = inhibition', '17.5% (inactive)'),
  ('Cc1ccc(-n2ncc3c(N4CCC(C(N)=O)CC4)ncnc32)c(C)c1', 'activity change, negative = inhibition', '5.42% (inactive)'),
  ('CNS(=O)(=O)c1cccc2nsnc12', 'activity change, negative = inhibition', '6.07% (inactive)'),
  ('O=C1CCC(=O)N1c1nc2nc(-c3ccccc3)cc(-c3ccccc3)n2n1', 'activity change, negative = inhibition', '-12.9% (inactive)'),
  ('CCCn1c(SCC#N)nc2c(c1=O)C1(CCCC1)Cc1ccccc1-2', 'activity change, negative = inhibition', '13.8% (inactive)'),
  ('CC1(C)Nc2ccc(O)cc2-c2c1ssc2=S', 'activity change, negative = inhibition', '-3.5% (inactive)'),
  ('CCCC(CCC(=O)Nc1ccc(C(=O)OC)cc1)C(=O)O (stereo not drawn)', 'activity change, negative = inhibition', '-9.55% (inactive)'),
  ('C=CCOC(=O)C(C#N)c1nc2ccccc2nc1N1CCN(c2ccccc2OCC)CC1 (stereo not drawn)', 'activity change, negative = inhibition', '9.88% (inactive)'),
  ('COc1nc(N(C)S(=O)(=O)c2ccc(C)cc2)nc(C)c1Cl', 'activity change, negative = inhibition', '-2.26% (inactive)'),
  ('CCOc1cccc(-c2nnc3sc(-c4ccc(C)cc4)nn23)c1', 'activity change, negative = inhibition', '18.5% (inactive)'),
  ('COc1ccc2c(c1)CN([C@H](C)[C@@H]1CC[C@@H]3[C@H]4CC[C@H]5C[C@@H](O)CC[C@@]5(C)[C@H]4CC[C@]31C)CO2', 'activity change, negative = inhibition', '23.1% [at 7.69 µM] (inactive)'),
  ('Cn1c(SCC(=O)N2CCOCC2)nnc1-c1cccc(NC(=O)c2ccccc2F)c1', 'activity change, negative = inhibition', '-25.9% (inactive)'),
  ('CC1(C)Cc2c(sc3nc(SCC#N)n(C4CCCCC4)c(=O)c23)CO1', 'activity change, negative = inhibition', '1.9% (inactive)'),
  ('O=C(COc1ccc(F)cc1)OCCN1CCOCC1', 'activity change, negative = inhibition', '-4.17% (inactive)'),
  ('Cc1c(NC(=O)C(CC(=O)O)NCc2ccco2)c(=O)n(-c2ccccc2)n1C (stereo not drawn)', 'activity change, negative = inhibition', '-3.94% (inactive)'),
  ('N/C(CCCN1CCCCC1)=N/O', 'activity change, negative = inhibition', '14.3% (inactive)'),
  ('c1csc(Cc2nn3c(-c4ccncc4)nnc3s2)c1', 'activity change, negative = inhibition', '-25% (inactive)'),
  ('COc1ccc(Nc2nnc(C)c3ccccc23)cc1C(N)=O', 'activity change, negative = inhibition', '-4.55% (inactive)'),
  ('CCN(CC)CCCN1C(=O)C(=O)/C(=C(/O)c2ccc3c(c2)CC(C)O3)C1c1cccnc1 (stereo not drawn)', 'activity change, negative = inhibition', '4.22% (inactive)'),
  ('COc1ccc(CSC2=NCCN2)cc1Cl', 'activity change, negative = inhibition', '15.6% (inactive)'),
  ('CCCCOc1ccc(C(=O)Nn2cnnc2)cc1', 'activity change, negative = inhibition', '15.5% (inactive)'),
  ('COc1ccc(-c2cn3ccsc3n2)cc1', 'activity change, negative = inhibition', '11.1% (inactive)');
